- METHOD_SUMMARY: in vitro
- ASSAY_CONTEXT: human
READOUT_NAME: CC50 (nM)

COMPOUND	VALUE_RELATION_SIGN	TEST_VALUE
C[C@H]1O[C@@H](O[C@H]2[C@@H](O)C[C@H](O[C@H]3[C@@H](O)C[C@H](O[C@H]4CC[C@@]5(C)[C@H](CC[C@@H]6[C@@H]5CC[C@]5(C)[C@@H](C7=CC(=O)OC7)CC[C@]65O)C4)O[C@@H]3C)O[C@@H]2C)C[C@H](O)[C@@H]1O	=	1730
C[C@@H]1O[C@@H](O[C@H]2CC[C@]3(C=O)[C@H]4CC[C@]5(C)[C@@H](C6=CC(=O)OC6)CC[C@]5(O)[C@@H]4CC[C@]3(O)C2)[C@H](O)[C@H](O)[C@H]1O	=	156
CCC(C)(C)C(=O)O[C@H]1C[C@@H](C)C=C2C=C[C@H](C)[C@H](CC[C@@H]3C[C@@H](O)CC(=O)O3)[C@H]21	>	30000
CC(C)n1c(/C=C/C(O)CC(O)CC(=O)O)c(-c2ccc(F)cc2)c2ccccc21 (centres unmarked)	>	100000
C[C@]12CC[C@H](O)C[C@H]1CC[C@@H]1[C@@H]2CC[C@]2(C)[C@@H](c3ccc(=O)oc3)CC[C@]12O	=	479
CN1CCCC(n2nc(Cc3ccc(Cl)cc3)c3ccccc3c2=O)CC1 (centres unmarked)	>	30000
C[C@H]1O[C@@H](O[C@H]2[C@@H](O)C[C@H](O[C@H]3[C@@H](O)C[C@H](O[C@H]4CC[C@@]5(C)[C@H](CC[C@@H]6[C@@H]5C[C@@H](O)[C@]5(C)[C@@H](C7=CC(=O)OC7)CC[C@]65O)C4)O[C@@H]3C)O[C@@H]2C)C[C@H](O)[C@@H]1O	=	1430
C[C@@H]1O[C@@H](O[C@@H]2C=C3CC[C@@H]4[C@H](CC[C@]5(C)[C@@H](c6ccc(=O)oc6)CC[C@]45O)[C@@]3(C)CC2)[C@H](O)[C@H](O)[C@H]1O	=	496
